Record form. Attribute: GI50. Fill in for each entry.
- System: UACC-257
- experiment: NCI tumour cell line growth inhibition, 48 h
Active and inactive are the calls of the source. Rule as the data show it: active = GI50 up to about 1.1 µM and inactive = higher.

Here is how some compounds turned out for GI50.
# compound, GI50
measured = [
    ("O/N=C1/C(=C/c2ccc(OCc3ccccc3)cc2)CCCC1C(NO)c1ccc(OCc2ccccc2)cc1 (centres undefined)", "10 µM (inactive)"),
    ("Cc1nc2c(o1)C(=O)c1ccccc1/C2=N\\c1ccccc1", "2.05 µM (inactive)"),
    ("CN(C)c1ccc(C=C2C(=O)NC(=S)NC2=O)c2ccccc12", "> 100 µM (inactive)"),
    ("COC(=O)/C(=N/NC(C)(C)C)C(C(=O)OC)C(=O)C(=O)Nc1nc2ccc([N+](=O)[O-])cc2s1 (centres undefined)", "> 100 µM (inactive)"),
    ("O=S1(=O)OCCOS(=O)(=O)C1(F)Br", "> 100 µM (inactive)"),
]

Below is a list of compounds. For each, state its recorded GI50.
1. CNC(=O)OCc1nc([S+](C)[O-])n(C)c1COC(=O)NC (centres undefined)
2. O=C(CN1CCCCC1)Nc1ccc2sc3ccccc3c(=O)c2n1
3. O=C(Cc1nc(-c2ccccc2)cc(=O)n1-c1ccccc1Cl)c1ccncc1
4. CC(=O)/C=C\C(=O)NNS(=O)(=O)c1ccc(C)cc1
5. Cc1cccc(CC(Cc2c(C)cccc2C(=O)O)C(=O)O)c1 (centres undefined)

1: > 100 µM (inactive); 2: 18.2 µM (inactive); 3: > 100 µM (inactive); 4: > 100 µM (inactive); 5: > 100 µM (inactive)

---

- Test system: HCT-116
- experiment: NCI tumour cell line growth inhibition, 48 h
Active and inactive are the calls of the source. Cut-off read from the data, not from the text of the source: active = GI50 up to about 1.1 µM and inactive = higher.
Record form. Attribute: GI50. Fill in for each entry.

Here is how some molecules turned out for GI50.
# molecule, GI50
measured = [
    ("[O-][Cl+3]([O-])([O-])O.c1ccc(/N=c2\\snc(-c3ccccc3)s2)cc1", "> 100 µM (inactive)"),
    ("NC(=S)N/N=C(/CCN1CCCC1)CC(C1=C(O)C2=CCCCC2OC1=O)c1ccccc1 (stereo unspecified)", "> 100 µM (inactive)"),
    ("COc1cc2nc(-c3cccs3)[nH]c(=O)c2cc1OC", "70.6 µM (inactive)"),
    ("S=P(C1CCCCC1)(C1CCCCC1)C(c1cccnc1)N1CCCC1 (stereo unspecified)", "18.5 µM (inactive)"),
    ("CCCN(CCC)C(=O)Cc1c2n(c3ccccc13)Cc1ccccc1-2", "28.8 µM (inactive)"),
    ("O=C(O)CN1CCNCCN(CC(=O)O)CCN(CC(=O)O)CCNCC1", "35.2 µM (inactive)"),
    ("O=C(CN1C(=O)c2ccccc2C1=O)OCC1CCCN2CCCCC12 (stereo unspecified)", "> 100 µM (inactive)"),
    ("COc1ccc(/C(=N/O)C(c2ccc(OC)cc2)C2C(=O)Oc3ccccc32)cc1 (stereo unspecified)", "58.6 µM (inactive)"),
]

Below is a list of molecules. For each, state its recorded GI50.
1. O=c1c(Cc2ccccc2)c(-c2ccccc2)[nH]n1C1=NCCN1
2. O=[N+]([O-])c1ccc2nnnn2c1

1: 24.6 µM (inactive); 2: 4.18 µM (inactive)

I am curious: what GI50 value has been reported for O=C1Nc2c(Cl)cccc2/C1=N/Nc1ccccc1[N+](=O)[O-] ?
29.7 µM (inactive)

---

- Test system: NCI/ADR-RES
- experiment: NCI tumour cell line growth inhibition, 48 h
Activity calls are given as the source filed them. Rule as the data show it: active = GI50 up to about 1.1 µM and inactive = higher.
Bench note: report the call from active, inactive

Sample answers from the record:
# molecule, labelValue
data = [
    ("CN(Cc1cnc2c(N)nc(N)nc2n1)c1ccc(Cl)cc1", "inactive"),
    ("O=C1c2ccccc2-c2ccc(O)cc21", "inactive"),
    ("CN(C)CCCc1cccnc1", "inactive"),
    ("COc1cc(C2c3cc4c(cc3OC(NCc3ccccc3)C2C)OCO4)cc(OC)c1OC (stereo unspecified)", "active"),
    ("COc1cc(/C=C2\\C[C@H]3[C@@H]4CC=C5C[C@@H](O)CC[C@]5(C)[C@H]4CC[C@]3(C)[C@H]2O)cc(OC)c1OC", "inactive"),
]

Dear all, I need the recorded test outcome for Cc1nc2c(=O)n(-c3ccccc3)c(=O)n(-c3ccccc3)c2o1 , thank you.
inactive

---

- Tested on: SF-539
- experiment: NCI tumour cell line growth inhibition, 48 h
Calls of active or inactive are those of the source. Rule as the data show it: active = GI50 up to about 1.1 µM and inactive = higher.
Bench note: report the call from active, inactive

Sample answers from the record:
# molecule, experimentalTarget, labelValue
rows = [
    ("O=C1CC(c2ccsc2)n2cccc21 (centres undefined)", "SF-539", "inactive"),
    ("CC1=C(C(=O)OC(C)C)C(c2cccc([N+](=O)[O-])c2)C(C(=O)OC(CO[N+](=O)[O-])CO[N+](=O)[O-])=C(C)N1 (centres undefined)", "SF-539", "inactive"),
    ("Nc1cccc(C#Cc2cccc(C#Cc3cccc(N)n3)n2)n1", "SF-539", "inactive"),
    ("CCOC(=O)C1CC(C(=O)c2ccccc2)N2c3ccccc3-c3ccccc3C12 (centres undefined)", "SF-539", "inactive"),
    ("Cc1nc2c(=O)n(-c3ccccc3)c(=O)n(-c3ccccc3)c2o1", "SF-539", "inactive"),
    ("Cc1ccc(/N=N/c2c(C)nn(C(=O)CC(=O)Nc3ccccc3)c2C)cc1C", "SF-539", "inactive"),
]

Dear all, I need the recorded test outcome for COc1ccc(NC(=O)/C(=C/c2ccccc2)C(C)=O)cc1 , thank you.
inactive

Dear all, I need the recorded test outcome for C=C(C)CCC1CC=[N+]([O-])OC1C(C)(C)C (centres undefined) , thank you.
inactive

Dear all, I need the recorded test outcome for CN(Cc1cnc2c(N)nc(N)nc2n1)c1ccc(Cl)cc1 , thank you.
inactive

Dear all, I need the recorded test outcome for COC(=O)C1C(C(=O)OC)C2C(=O)C3C(C(=O)OC)C(C(=O)OC)C3C(=O)C12 (centres undefined) , thank you.
inactive

Dear all, I need the recorded test outcome for COc1ccc2c3c(ccc2c1)NC(C(=O)O)CC3 (centres undefined) , thank you.
inactive

Dear all, I need the recorded test outcome for CCN(CC)C(=O)Cn1c2ccccc2[n+]2cc(N)ccc12 , thank you.
inactive

Dear all, I need the recorded test outcome for CC(=O)/C=C\C(=O)NNS(=O)(=O)c1ccc(C)cc1 , thank you.
inactive

---

- Tested on: MDA-MB-435
- experiment: NCI tumour cell line growth inhibition, 48 h
Activity calls are given as the source filed them. Cut-off read from the data, not from the text of the source: active = GI50 up to about 1.1 µM and inactive = higher.
Bench note: report the call from y (active), n (inactive)

# compound, labelValue
rows = [
    ("CN(C)CCCc1cccnc1", "n"),
    ("COc1ccc2[nH]c3c4c(ccc3c2c1)C(=O)C=CC4=O", "n"),
    ("O=c1c(Nc2ccccc2)cn(CCOc2ccc(Cl)cc2)c(=O)n1CCOc1ccc(Cl)cc1", "n"),
    ("Cc1ccccc1N/C(=C(/C(Cl)=C(Cl)Cl)[N+](=O)[O-])n1nnc2ccccc21", "n"),
    ("Cc1nc2c(=O)n(-c3ccccc3)c(=O)n(-c3ccccc3)c2o1", "n"),
    ("Cc1n[nH]c(=O)c2c3c([nH]c12)-c1ccccc1C3", "n"),
    ("Brc1ccc2c(-c3csc(-c4c[nH]c5cc(Br)ccc45)n3)c[nH]c2c1", "n"),
    ("O=[N+]([O-])c1ccc(Cl)c(CNc2ncnc3c2ncn3C2CCCCO2)c1 (stereo unspecified)", "n"),
]

Dear all, I need the recorded test outcome for Cc1nccn1S(=O)(=O)c1ccc(Cl)cc1 , thank you.
n

Dear all, I need the recorded test outcome for CCOc1cc2c(cc1O)/C(=N\N)C[C@@H]1[C@@H]2CC[C@]2(C)[C@@H](O)CC[C@@H]12 , thank you.
y

---

- Tested on: UO-31
- experiment: NCI tumour cell line growth inhibition, 48 h
Active and inactive are the calls of the source. No stated cut-off is given here; in the data, active = GI50 up to about 1.1 µM and inactive = higher.
Record form. Attribute: GI50. Fill in for each entry.

Here is how some molecules turned out for GI50.
# molecule, reportedValue
data = [
    ("O=C(CN1CCCCC1)Nc1ccc2sc3ccccc3c(=O)c2n1", "9.95 µM (inactive)"),
    ("COC(=O)CCC1=NOC(CC2CC(CCC(=O)OC)=NO2)C1 (stereo not given)", "> 100 µM (inactive)"),
    ("COc1ccc(C(=O)/C=C2\\Nc3cccnc3N\\C2=C/C(=O)c2ccc(OC)cc2)cc1", "27.4 µM (inactive)"),
    ("COC(=O)c1c(O)ccc(O)c1C(C(C)=O)C(C)=O", "> 100 µM (inactive)"),
    ("CN(CCN(C)Cc1ccc(Cl)c(Cl)c1)CCN1CCCC1", "11.6 µM (inactive)"),
    ("COc1ccc(CCCNC(=O)Cc2ccccc2CO)cc1OC", "> 100 µM (inactive)"),
    ("CCOc1cc2c(cc1O)/C(=N\\N)C[C@@H]1[C@@H]2CC[C@]2(C)[C@@H](O)CC[C@@H]12", "3.96 µM (inactive)"),
    ("Nc1nc(N)c(Cn2ccnc2)c(O)n1", "> 100 µM (inactive)"),
    ("COc1cc(OC)c([C@@H]2OC(=O)C3C2C(=O)O[C@H]3c2cc(OC)c(OC)cc2OC)cc1OC (stereo not given in full)", "> 100 µM (inactive)"),
]

Switching to the query record.
I am curious: what GI50 value has been reported for COc1cc2cccc(/N=C\c3cccc(OC)c3OC(C)C)c2cc1OC ?
30.1 µM (inactive)

Provenance of the data: ChEMBL document CHEMBL1201862
